Cited source: ChEMBL document CHEMBL1135531

organism: Cavia porcellus; experiment: Negative chronotropic activity in isolated guinea pig right atrium.; type: functional, Cardiac atrium
metric: Decrease
Quick note: unit goes after the number.

These recorded examples may help you get a feel for the data.
{"columns": ["compound", "Decrease"],
 "data": [
  ["CC1=C(C)n2c(noc2=O)C(O)(c2ccc(Cl)cc2)S1 (configuration not stated)", "19%"],
  ["CC1=CSC(O)(c2ccc(C#N)cc2)c2noc(=O)n21 (configuration not stated)", "30%"],
  ["COc1ccc([C@@H]2Sc3ccccc3N(CCN(C)C)C(=O)[C@@H]2OC(C)=O)cc1 [DILTIAZEM]", "94%"],
  ["CC1=Cn2c(noc2=O)C(O)(c2ccc(Cl)cc2)S1 (configuration not stated)", "11%"],
  ["CC1=CSC(O)(c2ccccc2)c2noc(=O)n21 (configuration not stated)", "14%"]
]}

Ask: Return reported Decrease. Input compound: CC1=CSC(O)(c2ccc([N+](=O)[O-])cc2)c2noc(=O)n21 (configuration not stated)
Result: 16%

Ask: Answer with the recorded Decrease of CC1=CSC(O)(c2ccc(Cl)cc2)c2noc(=O)n21 (configuration not stated) only.
Result: 18%

Ask: For the compound O=c1onc2n1C=CSC2(O)c1ccc(Cl)cc1 (configuration not stated) , give its measured Decrease value.
Result: 7%

Ask: Supply recorded Decrease for O=c1onc2n1C=CSC2(O)c1ccccc1 (configuration not stated) here.
Result: 14%

Ask: For CC1=CSC(O)(c2ccc(Br)cc2)c2noc(=O)n21 (configuration not stated) , write its Decrease.
Result: 18%

Ask: Look up and state reported Decrease for CC1=CSC(O)(c2cccc([N+](=O)[O-])c2)c2noc(=O)n21 (configuration not stated)
Result: 13%

Ask: Specify Decrease for COc1cccc(C2(O)SC=C(C)n3c2noc3=O)c1 (configuration not stated) and stop.
Result: 16%

----------
organism: Cavia porcellus; experiment: Effective drug concentration for negative inotropic activity was determined; Range is from 0.41-0.72 (10e-6 M); type: functional
metric: EC50 (nM)
Just the number in nM, nothing appended.

Ask: Tell me measured EC50 for COc1ccc(C2(O)SC=C(C)n3c2noc3=O)cc1 (stereo unspecified) please.
Result: 520

----------
species: Cavia porcellus; assay: Percent inhibition of calcium-induced contraction on K+-depolarized guinea-pig aortic strip at 5 x 10 e-5M; assay type: functional; conditions: Aorta
metric: inhibition at 50 µM (%)
Report the figure in % without appending any unit label.

Completed entries (count: 5):
{"columns": ["molecule", "unitString", "inhibition at 50 µM"],
 "data": [
  ["CC1=CSC(O)(c2cccc(C)c2)c2noc(=O)n21 (configuration not stated)", "%", 12],
  ["CC1=Cn2c(noc2=O)C(O)(c2ccc(Cl)cc2)S1 (configuration not stated)", "%", 15],
  ["CC1=CSC(O)(c2cccc([N+](=O)[O-])c2)c2noc(=O)n21 (configuration not stated)", "%", 19],
  ["CC1=CSC(O)(c2ccc(C#N)cc2)c2noc(=O)n21 (configuration not stated)", "%", 13],
  ["O=c1onc2n1C=CSC2(O)c1ccccc1 (configuration not stated)", "%", 11]
]}

Ask: Supply measured inhibition at 50 µM of CC1=CSC(OCC(C)C)(c2ccc(Cl)cc2)c2noc(=O)n21 (configuration not stated) in your reply.
Result: 37

Ask: Given CC1=C(C)n2c(noc2=O)C(O)(c2ccc(Cl)cc2)S1 (configuration not stated) , respond with its inhibition at 50 µM.
Result: 28

Ask: Please supply the value of reported inhibition at 50 µM for the item COC1(c2ccc(Cl)cc2)SC=C(C)n2c1noc2=O (configuration not stated)
Result: 14
